- SYSTEM_TESTED: human SMG1 enzyme (Homo sapiens)
- Sequence (Q96Q15 whole entry): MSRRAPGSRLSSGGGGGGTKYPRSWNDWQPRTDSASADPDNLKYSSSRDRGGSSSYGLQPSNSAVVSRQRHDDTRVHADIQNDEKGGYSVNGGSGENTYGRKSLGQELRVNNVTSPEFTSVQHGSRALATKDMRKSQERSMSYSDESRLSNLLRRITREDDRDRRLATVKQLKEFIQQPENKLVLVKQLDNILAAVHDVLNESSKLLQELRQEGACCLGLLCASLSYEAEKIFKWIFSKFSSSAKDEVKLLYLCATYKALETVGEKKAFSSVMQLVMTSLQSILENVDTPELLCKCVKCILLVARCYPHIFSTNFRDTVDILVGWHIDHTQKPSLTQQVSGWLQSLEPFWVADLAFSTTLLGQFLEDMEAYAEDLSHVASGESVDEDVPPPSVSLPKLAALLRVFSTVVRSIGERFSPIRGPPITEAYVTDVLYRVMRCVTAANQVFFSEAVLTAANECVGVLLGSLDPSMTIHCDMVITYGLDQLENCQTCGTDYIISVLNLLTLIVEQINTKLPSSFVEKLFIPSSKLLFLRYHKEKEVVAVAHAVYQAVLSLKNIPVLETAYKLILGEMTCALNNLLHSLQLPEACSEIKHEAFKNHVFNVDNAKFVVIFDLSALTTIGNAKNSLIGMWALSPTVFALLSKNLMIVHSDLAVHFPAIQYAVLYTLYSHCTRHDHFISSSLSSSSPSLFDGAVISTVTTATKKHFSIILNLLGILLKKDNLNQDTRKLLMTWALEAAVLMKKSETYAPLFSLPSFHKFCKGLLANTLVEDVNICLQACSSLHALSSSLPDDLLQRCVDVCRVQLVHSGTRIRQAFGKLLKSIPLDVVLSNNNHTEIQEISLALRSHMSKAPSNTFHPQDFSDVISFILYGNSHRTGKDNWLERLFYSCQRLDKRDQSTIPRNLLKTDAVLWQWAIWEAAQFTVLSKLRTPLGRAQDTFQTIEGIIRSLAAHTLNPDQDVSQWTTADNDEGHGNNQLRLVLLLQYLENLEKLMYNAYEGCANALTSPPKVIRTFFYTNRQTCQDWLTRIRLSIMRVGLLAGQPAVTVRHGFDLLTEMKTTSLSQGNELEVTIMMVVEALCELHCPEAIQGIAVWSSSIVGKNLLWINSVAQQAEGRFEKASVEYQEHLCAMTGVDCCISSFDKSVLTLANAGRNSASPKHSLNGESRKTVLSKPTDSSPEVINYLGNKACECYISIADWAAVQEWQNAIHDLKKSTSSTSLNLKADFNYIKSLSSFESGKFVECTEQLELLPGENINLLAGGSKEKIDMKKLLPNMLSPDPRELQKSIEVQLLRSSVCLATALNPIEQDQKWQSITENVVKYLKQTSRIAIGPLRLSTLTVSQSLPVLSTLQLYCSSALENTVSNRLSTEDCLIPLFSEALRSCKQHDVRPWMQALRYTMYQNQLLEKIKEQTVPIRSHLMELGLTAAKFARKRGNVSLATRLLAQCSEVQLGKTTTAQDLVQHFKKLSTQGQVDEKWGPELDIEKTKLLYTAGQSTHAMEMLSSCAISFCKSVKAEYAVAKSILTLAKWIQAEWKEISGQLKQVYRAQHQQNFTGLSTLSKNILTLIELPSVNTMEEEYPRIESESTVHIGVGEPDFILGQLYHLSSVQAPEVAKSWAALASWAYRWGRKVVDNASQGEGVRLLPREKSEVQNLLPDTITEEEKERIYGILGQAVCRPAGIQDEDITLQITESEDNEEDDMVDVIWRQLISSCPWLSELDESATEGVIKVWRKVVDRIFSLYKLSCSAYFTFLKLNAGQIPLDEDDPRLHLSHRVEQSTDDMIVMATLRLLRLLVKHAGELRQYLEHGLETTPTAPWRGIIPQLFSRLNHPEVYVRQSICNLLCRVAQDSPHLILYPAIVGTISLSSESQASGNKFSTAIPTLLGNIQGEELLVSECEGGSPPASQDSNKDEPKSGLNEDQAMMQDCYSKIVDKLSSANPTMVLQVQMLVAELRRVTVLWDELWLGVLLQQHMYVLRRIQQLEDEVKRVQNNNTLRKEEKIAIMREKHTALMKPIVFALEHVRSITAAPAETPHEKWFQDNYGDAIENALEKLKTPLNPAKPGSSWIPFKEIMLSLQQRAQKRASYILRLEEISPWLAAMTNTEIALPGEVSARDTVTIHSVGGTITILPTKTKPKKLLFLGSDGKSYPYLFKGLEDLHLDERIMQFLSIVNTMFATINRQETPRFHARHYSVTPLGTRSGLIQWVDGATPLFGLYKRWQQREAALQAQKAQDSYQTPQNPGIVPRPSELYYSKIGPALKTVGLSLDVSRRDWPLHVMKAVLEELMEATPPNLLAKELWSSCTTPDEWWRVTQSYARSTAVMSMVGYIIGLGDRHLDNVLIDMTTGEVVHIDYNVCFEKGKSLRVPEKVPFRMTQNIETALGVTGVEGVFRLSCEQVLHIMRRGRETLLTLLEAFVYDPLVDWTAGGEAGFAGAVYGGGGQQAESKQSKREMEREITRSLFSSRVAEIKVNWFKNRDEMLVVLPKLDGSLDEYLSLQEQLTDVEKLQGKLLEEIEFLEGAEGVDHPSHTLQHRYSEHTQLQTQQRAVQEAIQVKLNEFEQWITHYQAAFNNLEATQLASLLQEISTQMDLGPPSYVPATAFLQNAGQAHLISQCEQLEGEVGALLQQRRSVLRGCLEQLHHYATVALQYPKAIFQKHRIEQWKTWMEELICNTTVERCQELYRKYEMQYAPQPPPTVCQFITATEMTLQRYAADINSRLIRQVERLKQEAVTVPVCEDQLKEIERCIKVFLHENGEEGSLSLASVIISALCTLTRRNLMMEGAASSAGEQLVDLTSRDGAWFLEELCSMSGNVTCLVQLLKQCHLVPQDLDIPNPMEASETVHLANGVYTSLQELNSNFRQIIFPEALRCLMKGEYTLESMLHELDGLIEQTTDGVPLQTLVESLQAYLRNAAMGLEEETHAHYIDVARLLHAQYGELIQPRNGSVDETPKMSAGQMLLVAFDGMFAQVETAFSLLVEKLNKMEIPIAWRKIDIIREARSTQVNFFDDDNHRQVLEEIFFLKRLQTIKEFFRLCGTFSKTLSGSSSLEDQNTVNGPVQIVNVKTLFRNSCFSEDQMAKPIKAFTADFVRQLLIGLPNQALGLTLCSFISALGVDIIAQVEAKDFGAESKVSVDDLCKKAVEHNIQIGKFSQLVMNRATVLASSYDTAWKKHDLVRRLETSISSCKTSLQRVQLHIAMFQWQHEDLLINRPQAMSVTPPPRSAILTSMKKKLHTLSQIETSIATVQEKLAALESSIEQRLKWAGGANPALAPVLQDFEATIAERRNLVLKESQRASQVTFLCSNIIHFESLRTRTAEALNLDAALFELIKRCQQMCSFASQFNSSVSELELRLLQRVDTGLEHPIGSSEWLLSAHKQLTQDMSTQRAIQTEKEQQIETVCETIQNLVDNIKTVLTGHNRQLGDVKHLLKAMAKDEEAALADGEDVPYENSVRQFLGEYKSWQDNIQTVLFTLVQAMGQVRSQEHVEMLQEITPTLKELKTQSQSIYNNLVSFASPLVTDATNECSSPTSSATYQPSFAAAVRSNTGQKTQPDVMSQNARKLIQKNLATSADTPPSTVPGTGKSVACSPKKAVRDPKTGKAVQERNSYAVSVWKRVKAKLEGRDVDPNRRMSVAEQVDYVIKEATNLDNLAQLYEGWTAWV
Could you please mark Met for values of IC50 below 1 nM and Not met for values at or above it?

Example results:
CCc1nc(Cl)cc2[nH]c(-c3cc4c(-c5cnc(C6CC6)cc5OC)nccc4[nH]c3=O)nc12.CS(=O)(=O)O [Example 138, methanesulfonate] ... Met
CS(=O)(=O)O.[2H]C([2H])([2H])Oc1ccccc1-c1nccc2[nH]c(=O)c(-c3nc4cnc(Cl)cc4[nH]3)cc12 [Example 133] ... Not met
COc1cc(OC)c(-c2nccc3[nH]c(=O)c(-c4nc5c(C)nc(Cl)cc5[nH]4)cc23)cn1.CS(=O)(=O)O [Example 144, methanesulfonate] ... Met

IC50 under 1 nM? Item: CS(=O)(=O)O.Cc1nccc2[nH]c(=O)c(-c3nc4c(C5CCOCC5)nc(Cl)cc4[nH]3)cc12 [Example 125, methanesulfonate]
Met

IC50 under 1 nM? Item: CCc1nccc2[nH]c(=O)c(-c3nc4c(C5CCOCC5)nc(Cl)cc4[nH]3)cc12.CS(=O)(=O)O [Example 127, methanesulfonate]
Met

IC50 under 1 nM? Item: CC(C)(O)c1cccc(-c2nccc3[nH]c(=O)c(-c4nc5cnc(Cl)cc5[nH]4)cc23)c1 [Example 46]
Not met
